The following binders are shown together with reported kon values.
Target: T1, Human ST2 (human, UniProt Q01638 19-328, limits assumed)
T1 construct: also called human ST2 protein; Interleukin 1 receptor-like 1
T1 sequence (looked up): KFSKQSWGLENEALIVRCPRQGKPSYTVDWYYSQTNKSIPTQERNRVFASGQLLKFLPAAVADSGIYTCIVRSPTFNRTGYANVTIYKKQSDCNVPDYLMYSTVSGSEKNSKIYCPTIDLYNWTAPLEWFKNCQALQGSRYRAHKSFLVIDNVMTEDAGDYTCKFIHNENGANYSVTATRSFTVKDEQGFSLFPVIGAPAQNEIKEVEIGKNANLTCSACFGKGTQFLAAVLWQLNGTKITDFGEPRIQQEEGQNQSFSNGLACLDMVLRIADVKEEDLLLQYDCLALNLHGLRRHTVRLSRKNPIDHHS
Experiment: SPR (Carterra), antibody immobilized, ST2 analyte
Give the value in M⁻¹ s⁻¹ but do not write M⁻¹ s⁻¹ after it.

BINDER	REPORTED MEASUREMENT
Human ST2 IgG1 Antibody 12 (antibody, V domains shown, IgG1; also called ST2 Antibody 12) VH: QVQLVQSGAEVKKPGASVKVSCKASGYTFTGYYMHWVRQAPGQGLEWMGIIDPSGGGTSYAQKFQGRVTMTRDTSTSTVYMELSSLRSEDTAVYYCAKDIVVVPAAIANYYYGMDVWGQGTTVTVSS VL: DIQMTQSPSSLSASVGDRVTITCRVSQGISNYLNWYQQKPGKAPKLLIYGASTLQSGVPSRFSGSGSGTDFTLTISSLQPEDFATYYCQQSYSTPWTFGPGTKVDIKR	110000
Human ST2 IgG1 Antibody 11 (antibody, V domains shown, IgG1; also called ST2 Antibody 11) VH: QVQLVQSGAEVKKPGASVKVSCKASGGTFSSYAISWVRQAPGQGLEWMGWINPNSGGTNYAQKFQGRVTMTRDTSTSTVYMELSSLRSEDTAVYYCAMDTNYYYGMDVWGQGTTVTVSS VL: DIQMTQSPSSLSASVGDRVTITCQASEDIANNLNWYQQKPGKAPKLLIYAASSLQSGVPSRFSGSGSGTDFTLTISSLQPEDFATYYCQQGYNIPFTFGQGTKLEIKR	780000

Recorded kon of Human ST2 IgG1 Antibody 8 (antibody, V domains shown, IgG1; also called ST2 Antibody 8) VH: QVQLVQSGAEVKKPGASVKVSCKASGGTFSSYAISWVRQAPGQGLEWMGWISPDNGNTNYAQKLQGRVTMTRDTSTSTVYMELSSLRSEDTAVYYCARLAYDTGYYYYYYMDVWGKGTTVTVSS VL: DIVMTQSPLSLPVTPGEPASISCRSSQSLLHSNGYNYLDWYLQKPGQSPQLLIYAASTLQSGVPDRFSGSGSGTDFTLKISRVEAEDVGVYYCMQGTHWPLTFGQGTKVEIKR , please.
110000
